Test: Phase I study: plasma pharmacokinetics (UPLC-MS/MS)
Details: human, plasma, 720 mg, AUClast, mean (SD), Single dose; Vemurafenib 720mg BID Total
endpoint: AUC(0-t) (ng·h/mL)

1. CCCS(=O)(=O)Nc1ccc(F)c(C(=O)c2c[nH]c3ncc(-c4ccc(Cl)cc4)cc23)c1F 39300

###

Test: Phase I study: plasma pharmacokinetics (UPLC-MS/MS)
Details: human, plasma, 720 mg, Tmax, median (range), Multiple dose; Vemurafenib 720mg BID Total
endpoint: Tmax

1) CCCS(=O)(=O)Nc1ccc(F)c(C(=O)c2c[nH]c3ncc(-c4ccc(Cl)cc4)cc23)c1F 2.07 h
